B1: CPEB3 Ribozyme (parent)
chain: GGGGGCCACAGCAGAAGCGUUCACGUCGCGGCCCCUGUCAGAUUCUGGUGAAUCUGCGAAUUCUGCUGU

Variants of: B1
measurement_protocol: self-cleavage, relative activity (ratio to wild type); higher = more cleavage; co-transcriptional
readout_type: self-cleavage
No unit in the answer, only the number.

Reference set (10 entries):
* G19U C35U | 0.262
* C12U U62C | 0.511
* C63A U64G | 0.783
* C54U A60G | 0.903
* G19U G68A | 0.793
* C22U A40C | 0.165
* C24A C63G | 0.392
* G3A G58A | 0.315
* U53G C63U | 0.849
* A42G U62G | 0.709

According to the records, this variant C32U G65U displays self-cleavage of 0.806

Entry C35A G41C — recorded self-cleavage = 0.237

Values compiled from the RNAGym collection of RNA variant scans (doi:10.7554/elife.80360).
